# assay explanation: gradient 5% acetonitrile 3 min, to 50% in 2 min, to 85% in 15 min, held 3 min, 100 µL/min
# settings: column: Zorbax Extend-C18 2.1 x 50 mm; eluents: water / acetonitrile, 0.1% formic acid
property: RP-LC retention time (s)
Give the value in s but do not write s after it.

Q: Item O=C(Nc1ccc(F)cc1F)[C@@H]1OCC(=O)N(C2CC2)[C@H]1c1ccccc1 has what recorded RP-LC retention time?
Ans: 785

Q: Entry CCNC(=O)c1n[nH]c2c1CN(C(=O)c1cc(F)cc(F)c1)CC2 has what RP-LC retention time?
Ans: 634

Q: Give its RP-LC retention time value. Item: Cc1ccc(-c2noc(Cc3nnc(-c4cccc(Br)c4)o3)n2)cc1C
Ans: 1230

Q: I would be grateful if you could share the reported RP-LC retention time for O=S(=O)(Nc1ccc(Oc2nc3ccccc3n3cnnc23)cc1)c1cccc2nsnc12 .
Ans: 755

Q: Please give the measured RP-LC retention time for this compound: Cc1ccc(NC(=O)Cn2ncc3c(c2=O)N(CC2CC2)C(=O)CS3)cc1F
Ans: 928

Source of measurements: the METLIN SMRT retention time set (Domingo-Almenara et al. 2019)
